- System: CD2F1 mice, L1210 leukemia ip, survival T/C
- METHOD_NOTES: NCI In Vivo Anticancer Drug Screen. Data for tumor model L1210 Leukemia (intraperitoneal) in CD2F1 (CDF1) mice
- CONDITION_SUMMARY: endpoint: mean survival time; dose: 100.0 mg/kg/injection; schedule: Q04DX002 (ip); vehicle: saline with Tween-80; higher = longer survival
Inconclusive results and toxic doses are left out.

COMPOUND	ASSAYED_SYSTEM	T/C
NC(CCCCNCC(CNCCCCC(N)C(=O)O)C(=O)O)C(=O)O (stereo not given)	CD2F1 mice, L1210 leukemia ip, survival T/C	94 % of control
COc1ccc(OC)c(NC(=S)NC(=O)COc2ccccc2)c1	CD2F1 mice, L1210 leukemia ip, survival T/C	98 % of control
COc1cc2c(cc1OC)C(c1cc(OC)c(OC)c(OC)c1)=NCC2	CD2F1 mice, L1210 leukemia ip, survival T/C	104 % of control
NNC(=O)OCc1ccccc1	CD2F1 mice, L1210 leukemia ip, survival T/C	100 % of control
O=C(OC(C(=O)O)C(OC(=O)c1ccccc1)C(=O)O)c1ccccc1 (stereo not given) (tested in a mixture with another compound)	CD2F1 mice, L1210 leukemia ip, survival T/C	106 % of control
COc1ccccc1NC(=O)OCC(Cl)(Cl)Cl	CD2F1 mice, L1210 leukemia ip, survival T/C	103 % of control
CC1=C2C3OC(=O)C(C)C3CCC2(C)C=CC1=O (stereo not given)	CD2F1 mice, L1210 leukemia ip, survival T/C	116 % of control
COc1ccc(-n2cnc3c(=O)[nH]cnc32)cc1	CD2F1 mice, L1210 leukemia ip, survival T/C	86 % of control
CCOC(=O)c1c[nH]c([O-])c1[N+]#N	CD2F1 mice, L1210 leukemia ip, survival T/C	100 % of control
CCOC(=O)CC/C=C\Cc1c(OC)c(C)c2c(c1OC(=O)Nc1ccc(C(C)=O)cc1)C(=O)OC2	CD2F1 mice, L1210 leukemia ip, survival T/C	121 % of control
CC(=O)CC(=O)Nc1nccs1	CD2F1 mice, L1210 leukemia ip, survival T/C	93 % of control
CCCCOP(=O)(OC)OCCCC	CD2F1 mice, L1210 leukemia ip, survival T/C	94 % of control
[N-]=[N+]=NC1=C(Br)C(=O)OC1COC(=O)c1ccccc1 (stereo not given)	CD2F1 mice, L1210 leukemia ip, survival T/C	90 % of control
O=C(NCCCl)C(=O)NCCCl	CD2F1 mice, L1210 leukemia ip, survival T/C	100 % of control
S=P(c1ccccc1)(N1CC1)N1CC1	CD2F1 mice, L1210 leukemia ip, survival T/C	117 % of control
O=C(Nc1ccccc1)OCCc1c2ccccc2nc2ccccc12	CD2F1 mice, L1210 leukemia ip, survival T/C	94 % of control
COc1cc(NC(=O)Nc2cccc(Cl)c2)c(OC)cc1Cl	CD2F1 mice, L1210 leukemia ip, survival T/C	94 % of control
CC(C)=CCCc1ccc2c(c1)C(=O)c1ccccc1C2=O	CD2F1 mice, L1210 leukemia ip, survival T/C	88 % of control
O=C=NC(=O)c1ccccc1	CD2F1 mice, L1210 leukemia ip, survival T/C	96 % of control
COc1cc(CC(=O)NO)cc(OC)c1OC	CD2F1 mice, L1210 leukemia ip, survival T/C	88 % of control
